- System: A673/TR/shEF
- assay-protocol: cell viability (LOESS-normalised, relative to median of negative controls) (log2 ratio); higher = more viable cells (less compound effect), active = hit call of the paper (over 3 MAD below the median)
- measurement-setup: 0.308 µM; library screen: screen3; EWS-FLI1 expression: low (doxycycline-induced shRNA knockdown); treatment time: 72 h
In all, about 3,200 compounds went through this assay and about 300 (9.4%) showed activity. What follows is part of a selection rich in actives, with near analogues and random picks from the rest.
Hi! Could you answer with just one of these? active, inactive

Ask: Outcome? Nc1ccn([C@@H]2O[C@H](CO)[C@@H](O)C2(F)F)c(=O)n1
Reply: active

Ask: Outcome? COc1cc([C@@H]2c3cc4c(cc3[C@@H](O[C@@H]3O[C@@H]5CO[C@@H](c6cccs6)O[C@H]5[C@H](O)[C@H]3O)[C@H]3COC(=O)[C@H]23)OCO4)cc(OC)c1O
Reply: inactive

Ask: Outcome? Nc1ncn([C@H]2C[C@H](O)[C@@H](CO)O2)c(=O)n1
Reply: inactive

Ask: Outcome? Cc1cn([C@@H]2C[C@@H](O)[C@H](CO)O2)c(=O)[nH]c1=O
Reply: inactive

Ask: Outcome? CCC(C)[C@H]1O[C@]2(CC[C@@H]1C)CC1C[C@@H](C/C=C(\C)[C@@H](O[C@H]3C[C@H](OC)[C@@H](OC4C[C@H](OC)[C@@H](O)[C@H](C)O4)[C@H](C)O3)[C@@H](C)/C=C/C=C3\CO[C@@H]4[C@H](O)C(C)=C[C@@H](C(=O)O1)[C@]34O)O2.CO[C@H]1CC(O[C@H]2[C@H](C)O[C@@H](O[C@@H]3/C(C)=C/C[C@@H]4CC(C[C@]5(CC[C@H](C)[C@@H](C(C)C)O5)O4)OC(=O)[C@@H]4C=C(C)[C@@H](O)[C@H]5OC/C(=C\C=C\[C@@H]3C)[C@]54O)C[C@@H]2OC)O[C@@H](C)[C@@H]1O (stereo partly specified)
Reply: inactive

Ask: Outcome? Nc1cccc(-c2cc3c(Oc4cccc(O)c4)ncnc3[nH]2)c1
Reply: inactive

Ask: Outcome? O=C(/C=C/c1cccc(S(=O)(=O)Nc2ccccc2)c1)NO
Reply: inactive

Ask: Outcome? COc1cc(Nc2c(C#N)cnc3cc(OCCCN4CCN(C)CC4)c(OC)cc23)c(Cl)cc1Cl
Reply: inactive

Ask: Outcome? CNC(=O)CN(CCN(CCN(CC(=O)[O-])CC(=O)NC)CC(=O)[O-])CC(=O)[O-].O.[Gd+3]
Reply: inactive

Ask: Outcome? COc1cc2c(Oc3ccc4[nH]c(C)cc4c3F)ncnc2cc1OCCCN1CCCC1
Reply: inactive

Ask: Outcome? COc1cc([C@@H]2c3cc4c(cc3[C@@H](O[C@@H]3O[C@@H]5CO[C@@H](C)O[C@H]5[C@H](O)[C@H]3O)[C@H]3COC(=O)[C@H]23)OCO4)cc(OC)c1O
Reply: inactive

----------
- Test system: A673/TR/shEF
- assay-protocol: cell viability (LOESS-normalised, relative to median of negative controls) (log2 ratio); higher = more viable cells (less compound effect), active = hit call of the paper (over 3 MAD below the median)
- measurement-setup: 2.5 µM; library screen: screen1; EWS-FLI1 expression: high (no doxycycline); treatment time: 72 h
Among all 3,200 compounds or so, about 300 (9.4%) showed activity. The entries come from a sample that favours actives as a whole.
Hi! Could you answer with just one of these? active, inactive

Ask: Outcome? CCCc1occc(=O)c1C=CO
Reply: inactive

Ask: Outcome? COc1ccc(CN2CCN(Cc3cc(OC)c(OC)c(OC)c3)CC2)cc1
Reply: inactive

Ask: Outcome? C[C@@H]1C[C@H]2[C@@H]3C[C@H](F)C4=CC(=O)C=C[C@]4(C)[C@@]3(F)[C@@H](O)C[C@]2(C)[C@H]1C(=O)COC(=O)C(C)(C)C
Reply: inactive

Ask: Outcome? CN([C@@H](Cc1ccc(OS(=O)(=O)c2cccc3cnccc23)cc1)C(=O)N1CCN(c2ccccc2)CC1)S(=O)(=O)c1cccc2cnccc12
Reply: active

Ask: Outcome? O=C(O)c1cn(-c2ccccc2)nc1-c1ccc(F)cc1
Reply: inactive

Ask: Outcome? N#C/C(=C\c1ccc(O)c(O)c1)C(=O)NCc1ccccc1
Reply: active

Ask: Outcome? O=C(O[C@@H]1Cc2c(O)cc(O)cc2O[C@@H]1c1cc2cc([C@H]3Oc4cc(O)cc(O)c4C[C@H]3O)cc(=O)c(O)c2c(O)c1O)c1cc(O)c(O)c(O)c1
Reply: inactive

Ask: Outcome? CC=C(C)C(=O)OC1Cc2c(ccc3ccc(=O)oc23)OC1(C)C (configuration not stated)
Reply: inactive

Ask: Outcome? COC1[C@H](O)[C@@H](O)C(O)[C@H](O)[C@H]1O (some centres not stated)
Reply: inactive

Ask: Outcome? O=C(O)c1cc2cc(F)ccc2[nH]1
Reply: inactive

Ask: Outcome? CCCCCCCCCCCCCCCCCC(=O)OC[C@H](COP(=O)(O)OCC(O)COP(=O)(O)OC[C@@H](COC(=O)CCCCCCCCCCCCCCCCC)OC(=O)CCCCCCCCCCCCCCCCC)OC(=O)CCCCCCCCCCCCCCCCC (some centres not stated)
Reply: inactive

Ask: Outcome? O=C(CSc1nc2ccccc2[nH]1)c1ccc(OC(F)F)cc1
Reply: inactive

Ask: Outcome? Cn1c(=O)c2[nH]cnc2n(C)c1=O
Reply: inactive

Ask: Outcome? COc1ccc2c(c1)O[C@@H]1c3ccc(OC)cc3OC[C@H]21
Reply: inactive

Ask: Outcome? CCN1C(=O)/C(=C/c2c(N3CCN(C)CC3)nc3ccccn3c2=O)SC1=S
Reply: inactive

Ask: Outcome? CC(C)C[C@H](NC(=O)OCC1c2ccccc2-c2ccccc21)C(=O)O
Reply: inactive

Ask: Outcome? COCCOC(=O)C1=C(C)NC(=S)NC1c1ccccc1OC (configuration not stated)
Reply: inactive

Ask: Outcome? N#Cc1c2c(c(NCCCO)n3c1nc1ccccc13)CCC2
Reply: inactive

Ask: Outcome? COC(=O)c1cc(=O)c(O)c2c(O)c(O)ccc2c1
Reply: inactive

Ask: Outcome? COc1cc2cccc(OC)c(=O)c2c(OC)c1OC
Reply: inactive

Ask: Outcome? CCOc1cccc(=O)c2c(C)[nH]c(C)c12
Reply: inactive

Ask: Outcome? COc1ccc(CN2CCN(Cc3ccccc3Br)CC2)cc1OC
Reply: inactive

Ask: Outcome? O[C@H]1[C@H]2c3cc4c(cc3CN3CCC(=C[C@@H]1O)[C@H]23)OCO4
Reply: inactive

Ask: Outcome? COc1cc(Cc2cnc(N)nc2N)cc(OC)c1OC
Reply: inactive

Ask: Outcome? COC(=O)C(O)c1ccccc1 (configuration not stated)
Reply: inactive

Ask: Outcome? COc1ccc(/C=C(/NC(=O)c2ccccc2)C(=O)N2CCCCCC2)cc1OC
Reply: inactive

Ask: Outcome? O=C(O)c1cc2ccccc2[nH]1
Reply: inactive

Ask: Outcome? CCC(C)C(N)C1=NC(C(=O)N[C@@H](CC(C)C)C(=O)N[C@H](CCC(=O)O)C(=O)N[C@H](C(=O)N[C@H]2CCCCNC(=O)[C@H](CC(N)=O)NC(=O)[C@@H](CC(=O)O)NC(=O)[C@H](Cc3cnc[nH]3)NC(=O)[C@@H](Cc3ccccc3)NC(=O)[C@H]([C@@H](C)CC)NC(=O)[C@@H](CCCN)NC2=O)[C@@H](C)CC)CS1 (some centres not stated)
Reply: inactive

Ask: Outcome? Nc1ccccc1C(=O)CC(N)C(=O)O (configuration not stated)
Reply: inactive

Ask: Outcome? CC(=O)O[C@H]1CC[C@]2(C)[C@H]3C(=O)C=C4[C@@H]5C[C@@](C)(C(=O)O)CC[C@]5(C)CC[C@@]4(C)[C@]3(C)CC[C@H]2C1(C)C
Reply: inactive

Ask: Outcome? N#CC(=C(N)Sc1ccccc1N)C(C#N)=C(N)Sc1ccccc1N
Reply: active

Ask: Outcome? CC(C)C[C@@H]1NC(=O)[C@H](CCCN)NC(=O)[C@H](C(C)C)NC(=O)[C@@H]2CCCN2C(=O)[C@@H](Cc2ccccc2)NC(=O)[C@H](CC(C)C)NC(=O)[C@H](CCCN)NC(=O)[C@H](C(C)C)NC(=O)[C@@H]2CCCN2C(=O)[C@@H](Cc2ccccc2)NC1=O
Reply: active

----------
- System: A673/TR/shEF
- assay-protocol: cell viability (LOESS-normalised, relative to median of negative controls) (log2 ratio); higher = more viable cells (less compound effect), active = hit call of the paper (over 3 MAD below the median)
- measurement-setup: 0.25 µM; library screen: screen1; EWS-FLI1 expression: low (doxycycline-induced shRNA knockdown); treatment time: 72 h
The campaign covered roughly 3,200 compounds. About 300 (9.4%) showed activity. The sample as a whole holds a higher share of actives than the screen did.
measurement-label: cell viability (log2)
No unit in the answer, only the number.

Ask: Consider the compound C[C@@H]1C[C@H]2[C@@H]3C[C@H](F)C4=CC(=O)C=C[C@]4(C)[C@@]3(F)[C@@H](O)C[C@]2(C)[C@H]1C(=O)COC(=O)C(C)(C)C and give its measured cell viability (log2).
Reply: -0.0577

Ask: Consider the compound CSCCC(NC=O)C(=O)NC(CC(C)C)C(=O)NC(Cc1ccccc1)C(=O)O (stereo unspecified) and give its measured cell viability (log2).
Reply: 0.0891

Ask: Consider the compound CCN(CC)S(=O)(=O)c1ccc(C(=O)N(CCC(=O)OC)c2ccccn2)cc1 and give its measured cell viability (log2).
Reply: 0.147

Ask: Consider the compound S=c1[nH]nc(COc2ccc(Cl)cc2Cl)n1-c1ccccc1 and give its measured cell viability (log2).
Reply: 0.148

Ask: Consider the compound C=CCc1ccccc1OCC(O)CNC(C)C (stereo unspecified) and give its measured cell viability (log2).
Reply: 0.135

Ask: Consider the compound O=c1cccc2c([C@H]3Oc4cc(O)cc(O)c4C[C@H]3O)cc(O)c(O)c2c1O and give its measured cell viability (log2).
Reply: 0.00163

Ask: Consider the compound COc1ccc(CN2CCN(Cc3ccc(C)cc3)CC2)c(OC)c1OC and give its measured cell viability (log2).
Reply: 0.0696

Ask: Consider the compound CCC(=O)c1ccc2c(c1)N(CC(C)N(C)C)c1ccccc1S2 (stereo unspecified) and give its measured cell viability (log2).
Reply: 0.155

Ask: Consider the compound C[n+]1c2cc(N)ccc2cc2ccc(N)cc21 and give its measured cell viability (log2).
Reply: 0.141

Ask: Consider the compound N#C/C(=C\c1cc(Cl)cc(Cl)c1)c1cccnc1 and give its measured cell viability (log2).
Reply: 0.0849

Ask: Consider the compound CCOC(=O)c1oc2c(OC)c(O)cc(O)c2c(=O)c1-c1cc(OC)c(OC)c(OC)c1 and give its measured cell viability (log2).
Reply: 0.0305

Ask: Consider the compound CCC(=O)O[C@H]1CC[C@H]2[C@@H]3CCc4cc(O)ccc4[C@H]3CC[C@]12C and give its measured cell viability (log2).
Reply: 0.137

Ask: Consider the compound COC(=O)C(C(C)=O)C(C)=O and give its measured cell viability (log2).
Reply: 0.0334

Ask: Consider the compound COc1ccc(-c2oc3cc(O[C@@H]4O[C@H](CO)[C@@H](O)[C@H](O)[C@H]4O)c(OC)c(O)c3c(=O)c2OC)cc1O and give its measured cell viability (log2).
Reply: 0.127

Ask: Consider the compound CCC1(c2ccccc2)NC(=O)N(C)C1=O (stereo unspecified) and give its measured cell viability (log2).
Reply: 0.0208

Ask: Consider the compound CCC1(c2ccccc2)C(=O)NCNC1=O and give its measured cell viability (log2).
Reply: 0.0903

Ask: Consider the compound C=C1C[C@]23C[C@@]1(O)CC[C@H]2[C@@]12C=C[C@H](O)C(C)(C(=O)O1)[C@H]2[C@@H]3C(=O)O and give its measured cell viability (log2).
Reply: -0.049

Ask: Consider the compound COc1cccc2c(C)cc(=O)[nH]c12 and give its measured cell viability (log2).
Reply: 0.0801

Ask: Consider the compound CN(C)CCN(Cc1ccccc1)c1ccccn1 and give its measured cell viability (log2).
Reply: 0.111

Ask: Consider the compound CN1[C@@H]2CC[C@@H]1CC(OC(c1ccccc1)c1ccccc1)C2 (stereo partly specified) and give its measured cell viability (log2).
Reply: 0.107

Ask: Consider the compound CCOC(=O)c1c[nH]c2c(Cl)c(Cl)ccc2c1=O and give its measured cell viability (log2).
Reply: 0.122

Ask: Consider the compound CCOC(=O)c1c[nH]c2ccc(OC)cc2c1=O and give its measured cell viability (log2).
Reply: 0.1

Ask: Consider the compound CC(=O)OC1CC[C@@]2(C)C(CC[C@]3(C)C2CCC2C4CC(C)(C)CCC4(C(=O)O)CC[C@]23C)C1(C)C (stereo partly specified) and give its measured cell viability (log2).
Reply: 0.055

Ask: Consider the compound C=CCCCCCCCCCCCC=CC(O)COC(C)=O (stereo unspecified) and give its measured cell viability (log2).
Reply: 0.0382

Ask: Consider the compound CC1=CC(=O)CC(C)(C)[C@@]1(O)/C=C/C(C)=C\C(=O)O and give its measured cell viability (log2).
Reply: 0.084

Ask: Consider the compound C=CC(C)(CCC1C(=C)CC(OC(C)=O)C2C(C)(C)CCCC12C)OC(C)=O (stereo unspecified) and give its measured cell viability (log2).
Reply: 0.066

Ask: Consider the compound COC1=C[C@@H](C)[C@@H]2C[C@H]3OC(=O)C[C@H]4C(C)=C(OC)C(=O)[C@H]([C@@]2(C)C1=O)[C@@]34C and give its measured cell viability (log2).
Reply: 0.006

Ask: Consider the compound C[C@@H]1CC[C@H]2[C@](C)(CO)[C@@H](O)CC[C@]2(C)[C@@]12CC[C@@](CO)(CCO)O2 and give its measured cell viability (log2).
Reply: -0.0603

Ask: Consider the compound Nc1ncnc2nc[nH]c12 and give its measured cell viability (log2).
Reply: 0.112

Ask: Consider the compound OC[C@@H](O)C(O)[C@H](O)CO and give its measured cell viability (log2).
Reply: 0.0545

Ask: Consider the compound O=C1/C(=C\c2ccccc2F)SC(=S)N1CN1CCOCC1 and give its measured cell viability (log2).
Reply: 0.0809
